Hey, just so you know, these numbers are from patent US20060025342A1.

subject of test: T1, human PTH/PTHrP receptor (PTH1 receptor) (human, UniProt Q03431 27-593)
T1 sequence (looked up): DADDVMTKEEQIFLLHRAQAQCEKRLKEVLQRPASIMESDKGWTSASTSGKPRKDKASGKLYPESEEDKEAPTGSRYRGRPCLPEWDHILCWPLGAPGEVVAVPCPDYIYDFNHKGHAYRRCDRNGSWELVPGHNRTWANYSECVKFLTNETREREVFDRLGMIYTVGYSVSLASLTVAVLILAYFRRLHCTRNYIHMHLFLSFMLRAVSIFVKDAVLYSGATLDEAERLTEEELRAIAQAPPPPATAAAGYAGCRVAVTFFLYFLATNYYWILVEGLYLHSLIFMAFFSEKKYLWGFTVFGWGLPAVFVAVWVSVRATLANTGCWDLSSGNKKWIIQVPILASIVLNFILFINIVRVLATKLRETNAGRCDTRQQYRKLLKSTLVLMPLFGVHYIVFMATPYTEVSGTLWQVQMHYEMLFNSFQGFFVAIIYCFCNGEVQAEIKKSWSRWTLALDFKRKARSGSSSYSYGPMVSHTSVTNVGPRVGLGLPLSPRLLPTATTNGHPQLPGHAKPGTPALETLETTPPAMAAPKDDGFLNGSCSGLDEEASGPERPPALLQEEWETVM
test description: cell-based or functional assay
Non-standard residues stand in square brackets, D forms with d. No end group written: not given here. Nle = CCCC[C@H](N)C(=O)O
attribute measured: Adenylate cyclase (EC50), SaOS cells (intact, 15 C, 60 min) (nM)
Answers are plain numbers, in nM.

{"columns": ["binder", "unit descriptor", "reported result"],
 "data": [
  ["AVSEIQLMHNLGKHLASVERMQWLRKKLQDVHNF (peptide, UniProt P04089 32-65, looked up, range 1-34; Synthetic, Bachem; also called rPTH-(1-34); rat (r)PTH-(1-34)) [rat PTH-(1-34)]", "nM", 0.9],
  ["bPTH-(1-84) (ligand, bovine, UniProt P01268 32-115, looked up, range 1-84; From the National Hormone and Pituitary Program (NIDDK); also called bovine PTH-(1-84)) AVSEIQFMHNLGKHLSSMERVEWLRKKLQDVHNFVALGASIAYRDGSSQRPRKKEDNVLVESHQKSLGEADKADVDVLIKAKPQ", "nM", 7.7],
  ["SVSEIQL[Nle]HNLGKHLNS[Nle]ERVEWLRKKLQDVHNY [(Nle^8,18, Tyr^34)hPTH-(1-34)]", "nM", 2.3],
  ["SVSEMQLMHNLGEHRHTVERQDWLQMKLQDVHSA-NH2 (peptide, UniProt P15743 32-65, looked up, range 1-34; Solid phase synthesis; also called cPTH-(1-34)NH2) [Chicken PTH-(1-34)amide]", "nM", 3.9]
]}

Now for a further binder.
So for AVSEIQFMHNLGKHLSSMERVEWLRKKLQDVHNF (peptide, UniProt P01268 32-65, looked up, range 1-34; Synthetic, Bachem; also called bPTH-(1-34); bovine (b)PTH-(1-34)) [bovine PTH-(1-34)] , the logged Adenylate cyclase (EC50), SaOS cells (intact, 15 C, 60 min) turned out to be 1.2
